assay: Antifungal activity against Madurella mycetomatis isolate 55 by XTT assay; type: functional
Numbered stars: 1 amine (or outer) side, 2 acyl side, 3 side chain; on linkers, the order of the positions; unused ones are H or OH. Bridge positions count the residues as written; N and C are the ends. Square brackets hold non-standard residues; d marks the D form. Peptide text beside a SMILES is read from it. * marks the point of attachment. hTyr(3S-OH,4S-OH,3'-OSO3H) = N[C@H](C(=O)O)[C@H](O)[C@@H](O)c1ccc(O)c(OS(=O)(=O)O)c1; pTerphenylCO(4''-OnC5H11) = CCCCCOc1ccc(-c2ccc(-c3ccc(C(=O)*)cc3)cc2)cc1; Orn(4R-OH,5R-OH) = O=C([C@H](C[C@@H](O)[C@@H](O)N[*:3])N[*:1])[*:2]; hTyr(3S-OH,4S-OH) = N[C@H](C(=O)O)[C@H](O)[C@@H](O)c1ccc(O)cc1; Pro(3S-OH,4S-Me) = C[C@H]1CN[C@H](C(=O)O)[C@H]1O; X1 = CCCCCOc1ccc(-c2cc(-c3ccc(C(=O)*)cc3)no2)cc1; Gln(3R-OH) = NC(=O)C[C@@H](O)[C@H](N)C(=O)O; Hyp = O=C(O)[C@@H]1C[C@@H](O)CN1
Known MIC of a selection of compounds
endpointLabel: MIC (µg/mL)

compound="CCCCCOc1ccc(-c2cc(-c3ccc(C(=O)N[C@H]4C[C@@H](O)[C@@H](O)NC(=O)[C@@H]5[C@@H](O)[C@@H](C)CN5C(=O)[C@H]([C@H](O)CC(N)=O)NC(=O)[C@H]([C@H](O)[C@@H](O)c5ccc(O)c(OS(=O)(=O)O)c5)NC(=O)[C@@H]5C[C@@H](O)CN5C(=O)[C@H]([C@@H](C)O)NC4=O)cc3)no2)cc1 [MICAFUNGIN] (X1-[Orn(4R-OH,5R-OH)]T[Hyp][hTyr(3S-OH,4S-OH,3'-OSO3H)][Gln(3R-OH)][Pro(3S-OH,4S-Me)]; lactam 1-C)" valuecomparator=> testresult=128
compound=CC[C@H](C)C[C@H](C)CCCCCCCCC(=O)N[C@H]1C[C@@H](O)[C@@H](NCCN)NC(=O)[C@@H]2[C@@H](O)CCN2C(=O)[C@H]([C@H](O)CCN)NC(=O)[C@H]([C@H](O)[C@@H](O)c2ccc(O)cc2)NC(=O)[C@@H]2C[C@@H](O)CN2C(=O)[C@H]([C@@H](C)O)NC1=O valuecomparator== testresult=128
compound="CCCCCOc1ccc(-c2ccc(-c3ccc(C(=O)N[C@H]4C[C@@H](O)[C@@H](O)NC(=O)[C@@H]5[C@@H](O)[C@@H](C)CN5C(=O)[C@H]([C@@H](C)O)NC(=O)[C@H]([C@H](O)[C@@H](O)c5ccc(O)cc5)NC(=O)[C@@H]5C[C@@H](O)CN5C(=O)[C@H]([C@@H](C)O)NC4=O)cc3)cc2)cc1 [ANIDULAFUNGIN] ({pTerphenylCO(4''-OnC5H11)}-[Orn(4R-OH,5R-OH)]T[Hyp][hTyr(3S-OH,4S-OH)]T[Pro(3S-OH,4S-Me)]; lactam 1-C)" valuecomparator=> testresult=128
compound="CC(=O)N1CCN(c2ccc(OCC3COC(Cn4ccnc4)(c4ccc(Cl)cc4Cl)O3)cc2)CC1 (centres undefined)" valuecomparator== testresult=0.25
